Biological target: human V1a receptor (Homo sapiens, UniProt P37288)
Sequence (P37288 whole entry): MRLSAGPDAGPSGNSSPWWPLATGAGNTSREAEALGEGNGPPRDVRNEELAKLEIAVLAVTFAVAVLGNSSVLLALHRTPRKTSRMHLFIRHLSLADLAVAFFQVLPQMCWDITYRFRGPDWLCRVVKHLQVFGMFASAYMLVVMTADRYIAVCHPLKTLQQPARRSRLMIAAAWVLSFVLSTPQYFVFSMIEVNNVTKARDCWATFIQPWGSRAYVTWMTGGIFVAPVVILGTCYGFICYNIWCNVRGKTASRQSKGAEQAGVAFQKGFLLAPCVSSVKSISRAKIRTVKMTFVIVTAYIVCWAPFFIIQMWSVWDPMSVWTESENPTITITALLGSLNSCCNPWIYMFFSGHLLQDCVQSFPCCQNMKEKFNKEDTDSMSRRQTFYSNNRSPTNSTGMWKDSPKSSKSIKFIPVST
Test: Calcium flux assay (FLIPR), agonist mode, CHO cells expressing human V1a
Settings: CHO cells stably expressing human V1a; calcium flux; read-out: hV1a EC50
Positions of bridges follow the written chain, without caps; N, C: chain ends. Non-standard residues stand in square brackets, D forms with d. Residues, ends and D or L forms follow the SMILES beside them. Sar = CNCC(=O)O
MEASUREMENT_TYPE: EC50

[
  {
    "MOLECULE": "CC[C@H](C)[C@@H]1NC(=O)[C@H](Cc2ccc(O)cc2)NC(=O)CNC(=O)CC[C@@H](C(=O)N(C)CC(=O)N[C@@H](Cc2c[nH]cn2)C(=O)NCC(N)=O)NC(=O)[C@H](CC(N)=O)NC(=O)[C@H](CCC(N)=O)NC1=O [Example 34] (GYIQNE[Sar]HG-NH2; lactam N-6)",
    "EC50": "> 10 µM"
  }
]

Let's switch to this molecule now.
I would be grateful if you could share the reported EC50 for CC[C@H](C)[C@@H]1NC(=O)[C@H](Cc2ccc(O)cc2)NC(=O)CNC(=O)CC[C@@H](C(=O)N[C@@H](C)C(=O)N[C@@H](CC(C)C)C(=O)NCC(N)=O)NC(=O)[C@H](CC(N)=O)NC(=O)[C@H](CCC(N)=O)NC1=O [Example 17] (GYIQNEALG-NH2; lactam N-6) . > 12 µM
